Molecular target: Cyclin-dependent kinase 2/cyclin A (Homo sapiens, UniProt P24941)
Assay: Inhibition of CDK2/Cyclin A
For each of the compounds below, state its pIC50.
// pIC50 is dimensionless: -log10 of concentration (M)

Exam item: Form field - read-out: pIC50; system: Cyclin-dependent kinase 2/cyclin A (Homo sapiens, UniProt P24941); submitted item: O=c1cc(-c2ccccc2Cl)oc2c(N3CCOCC3)ccc(O)c12
Marked response: 3.38

Exam item: Form field - read-out: pIC50; system: Cyclin-dependent kinase 2/cyclin A (Homo sapiens, UniProt P24941); submitted item: CC(C)C[C@H](NC(=O)OC(C)(C)C)C(=O)Nc1ccc(O)c2c(=O)cc(-c3ccccc3Cl)oc12
Marked response: 3.38

Exam item: Form field - read-out: pIC50; system: Cyclin-dependent kinase 2/cyclin A (Homo sapiens, UniProt P24941); submitted item: Cc1ccc(C(=O)Nc2c(O)cc(O)c3c(=O)cc(-c4ccccc4Cl)oc23)cc1
Marked response: 4.05

Exam item: Form field - read-out: pIC50; system: Cyclin-dependent kinase 2/cyclin A (Homo sapiens, UniProt P24941); submitted item: CC(C)(C)OC(=O)N[C@H](Cc1ccccc1)C(=O)Nc1ccc(O)c2c(=O)cc(-c3ccccc3Cl)oc12
Marked response: 3.38

Exam item: Form field - read-out: pIC50; system: Cyclin-dependent kinase 2/cyclin A (Homo sapiens, UniProt P24941); submitted item: CC(C)C[C@@H](NC(=O)OC(C)(C)C)C(=O)Nc1ccc(O)c2c(=O)cc(-c3ccccc3Cl)oc12
Marked response: 3.38

Exam item: Form field - read-out: pIC50; system: Cyclin-dependent kinase 2/cyclin A (Homo sapiens, UniProt P24941); submitted item: COc1ccc(C(=O)Nc2c(O)cc(O)c3c(=O)cc(-c4ccccc4Cl)oc23)cc1
Marked response: 4.27

Exam item: Form field - read-out: pIC50; system: Cyclin-dependent kinase 2/cyclin A (Homo sapiens, UniProt P24941); submitted item: O=C(Nc1ccc(O)c2c(=O)cc(-c3ccccc3Cl)oc12)c1ccccc1
Marked response: 3.38

Exam item: Form field - read-out: pIC50; system: Cyclin-dependent kinase 2/cyclin A (Homo sapiens, UniProt P24941); submitted item: C[C@H](NC(=O)OC(C)(C)C)C(=O)Nc1ccc(O)c2c(=O)cc(-c3ccccc3Cl)oc12
Marked response: 3.38

Exam item: Form field - read-out: pIC50; system: Cyclin-dependent kinase 2/cyclin A (Homo sapiens, UniProt P24941); submitted item: CCC(C)OC(=O)Nc1ccc(O)c2c(=O)cc(-c3ccccc3Cl)oc12 (centres undefined)
Marked response: 3.38

---

Test system: MCF7
Test: Antiproliferative activity against MCF7 cells
Assay type: functional, cell-based
Settings: Homo sapiens
measured_property: IC50 (µM)
The response must be a number in µM with no trailing unit.

Exam item: Form field - read-out: IC50; system: MCF7; submitted item: CSCC[C@@H](NC(=O)OC(C)(C)C)C(=O)Nc1ccc(O)c2c(=O)cc(-c3ccccc3Cl)oc12
Marked response: 2.8

Exam item: Form field - read-out: IC50; system: MCF7; submitted item: O=C(Nc1ccc(O)c2c(=O)cc(-c3ccccc3Cl)oc12)c1ccc(Cl)cc1
Marked response: 4.6

Exam item: Form field - read-out: IC50; system: MCF7; submitted item: O=C(Nc1c(O)cc(O)c2c(=O)cc(-c3ccccc3Cl)oc12)c1ccc(Cl)cc1
Marked response: 13

Exam item: Form field - read-out: IC50; system: MCF7; submitted item: C[C@H](NC(=O)OC(C)(C)C)C(=O)Nc1ccc(O)c2c(=O)cc(-c3ccccc3Cl)oc12
Marked response: 5.5

Exam item: Form field - read-out: IC50; system: MCF7; submitted item: C[C@@H](NC(=O)OC(C)(C)C)C(=O)Nc1ccc(O)c2c(=O)cc(-c3ccccc3Cl)oc12
Marked response: 5.5

Exam item: Form field - read-out: IC50; system: MCF7; submitted item: O=c1cc(-c2ccccc2Cl)oc2c(N3CCOCC3)ccc(O)c12
Marked response: 20

Exam item: Form field - read-out: IC50; system: MCF7; submitted item: CCC(C)OC(=O)Nc1ccc(O)c2c(=O)cc(-c3ccccc3Cl)oc12 (centres undefined)
Marked response: 30

Exam item: Form field - read-out: IC50; system: MCF7; submitted item: COc1ccc(C(=O)Nc2c(O)cc(O)c3c(=O)cc(-c4ccccc4Cl)oc23)cc1
Marked response: 13

Exam item: Form field - read-out: IC50; system: MCF7; submitted item: Cc1ccc(C(=O)Nc2ccc(O)c3c(=O)cc(-c4ccccc4Cl)oc23)cc1
Marked response: 10

Exam item: Form field - read-out: IC50; system: MCF7; submitted item: CC(C)(C)OC(=O)N[C@H](Cc1ccccc1)C(=O)Nc1ccc(O)c2c(=O)cc(-c3ccccc3Cl)oc12
Marked response: 4.5

Exam item: Form field - read-out: IC50; system: MCF7; submitted item: CSCC[C@H](NC(=O)OC(C)(C)C)C(=O)Nc1ccc(O)c2c(=O)cc(-c3ccccc3Cl)oc12
Marked response: 20

Exam item: Form field - read-out: IC50; system: MCF7; submitted item: COc1ccc(C(=O)Nc2ccc(O)c3c(=O)cc(-c4ccccc4Cl)oc23)cc1
Marked response: 3.5

Exam item: Form field - read-out: IC50; system: MCF7; submitted item: O=C(Nc1ccc(O)c2c(=O)cc(-c3ccccc3Cl)oc12)c1ccc(Cl)c(Cl)c1
Marked response: 15

Exam item: Form field - read-out: IC50; system: MCF7; submitted item: CC(C)(C)OC(=O)N[C@@H](Cc1ccccc1)C(=O)Nc1ccc(O)c2c(=O)cc(-c3ccccc3Cl)oc12
Marked response: 7.1

Exam item: Form field - read-out: IC50; system: MCF7; submitted item: O=C(Nc1ccc(O)c2c(=O)cc(-c3ccccc3Cl)oc12)c1ccccc1
Marked response: 7.1

Exam item: Form field - read-out: IC50; system: MCF7; submitted item: Cc1ccc(C(=O)Nc2c(O)cc(O)c3c(=O)cc(-c4ccccc4Cl)oc23)cc1
Marked response: 9.7

Exam item: Form field - read-out: IC50; system: MCF7; submitted item: CC(C)C[C@H](NC(=O)OC(C)(C)C)C(=O)Nc1ccc(O)c2c(=O)cc(-c3ccccc3Cl)oc12
Marked response: 4

Exam item: Form field - read-out: IC50; system: MCF7; submitted item: O=C(Nc1c(O)cc(O)c2c(=O)cc(-c3ccccc3Cl)oc12)c1ccccc1
Marked response: 8.5

Exam item: Form field - read-out: IC50; system: MCF7; submitted item: CN1CC[C@H](c2c(O)cc(O)c3c(=O)cc(-c4ccccc4Cl)oc23)[C@H](O)C1 [ALVOCIDIB]
Marked response: 0.026

---

For each of the compounds below, state its pIC50.
Assay: Antiproliferative activity against ID8 cells
Assay type: functional, cell-based
Conditions: Mus musculus
// pIC50 is dimensionless: -log10 of concentration (M)

Exam item: Which measured pIC50 value corresponds to CSCC[C@H](NC(=O)OC(C)(C)C)C(=O)Nc1ccc(O)c2c(=O)cc(-c3ccccc3Cl)oc12 ?
Marked response: 5.21

Exam item: Which measured pIC50 value corresponds to CC(C)(C)OC(=O)N[C@@H](Cc1ccccc1)C(=O)Nc1ccc(O)c2c(=O)cc(-c3ccccc3Cl)oc12 ?
Marked response: 5.28

Exam item: Which measured pIC50 value corresponds to COc1ccc(C(=O)Nc2ccc(O)c3c(=O)cc(-c4ccccc4Cl)oc23)cc1 ?
Marked response: 5.30

Exam item: Which measured pIC50 value corresponds to CN1CC[C@H](c2c(O)cc(O)c3c(=O)cc(-c4ccccc4Cl)oc23)[C@H](O)C1 ?
Marked response: 8.15

Exam item: Which measured pIC50 value corresponds to O=C(Nc1ccc(O)c2c(=O)cc(-c3ccccc3Cl)oc12)c1ccccc1 ?
Marked response: 4.89

Exam item: Which measured pIC50 value corresponds to CC(C)(C)OC(=O)N[C@H](Cc1ccccc1)C(=O)Nc1ccc(O)c2c(=O)cc(-c3ccccc3Cl)oc12 ?
Marked response: 4.92

Exam item: Which measured pIC50 value corresponds to O=c1cc(-c2ccccc2Cl)oc2c(N3CCOCC3)ccc(O)c12 ?
Marked response: 5.10

Exam item: Which measured pIC50 value corresponds to CCC(C)OC(=O)Nc1ccc(O)c2c(=O)cc(-c3ccccc3Cl)oc12 (centres undefined) ?
Marked response: 4.74

Exam item: Which measured pIC50 value corresponds to C[C@H](NC(=O)OC(C)(C)C)C(=O)Nc1ccc(O)c2c(=O)cc(-c3ccccc3Cl)oc12 ?
Marked response: 5.01

---

Target: Cyclin-dependent kinase 2/cyclin A (Homo sapiens)
Assay: Inhibition of CDK2/Cyclin A
measured_property: pIC50
// pIC50 is dimensionless: -log10 of concentration (M)

Exam item: Which measured pIC50 value corresponds to COc1ccc(C(=O)Nc2ccc(O)c3c(=O)cc(-c4ccccc4Cl)oc23)cc1 ?
Marked response: 3.42

Exam item: Which measured pIC50 value corresponds to O=C(Nc1c(O)cc(O)c2c(=O)cc(-c3ccccc3Cl)oc12)c1ccc(Cl)cc1 ?
Marked response: 3.47

Exam item: Which measured pIC50 value corresponds to O=C(Nc1ccc(O)c2c(=O)cc(-c3ccccc3Cl)oc12)c1ccc(Cl)c(Cl)c1 ?
Marked response: 3.66

Exam item: Which measured pIC50 value corresponds to CC(C)(C)OC(=O)N[C@@H](Cc1ccccc1)C(=O)Nc1ccc(O)c2c(=O)cc(-c3ccccc3Cl)oc12 ?
Marked response: 3.38

Exam item: Which measured pIC50 value corresponds to O=C(Nc1c(O)cc(O)c2c(=O)cc(-c3ccccc3Cl)oc12)c1ccccc1 ?
Marked response: 4.04

Exam item: Which measured pIC50 value corresponds to O=C(Nc1ccc(O)c2c(=O)cc(-c3ccccc3Cl)oc12)c1ccc(Cl)cc1 ?
Marked response: 3.38
